Data provenance: ChEMBL document CHEMBL1139760

# Assay Protocol: Oral bioavailability in rat at 3 mg/kg
# Format: ADME, organism-based
# Assay Conditions: in vivo
Experimental Endpoint: bioavailability (%)

{"Compound Smiles": "Cc1ccc2c(OCCN3CCC(Cc4ccc5c(c4)NC(=O)CO5)CC3)cccc2n1", "bioavailability [%]": 40}
{"Compound Smiles": "CCN1C(=O)COc2ccc(CN3CCN(CCOc4cccc5nc(C)ccc45)CC3)c(F)c21", "bioavailability [%]": 34}

1. Cc1ccc2c(OCCN3CCN(Cc4ccc5c(c4F)N(C)C(=O)CO5)CC3)cccc2n1
2. Cc1ccc2c(OCCN3CCC(Cc4ccc5c(c4)N(C)C(=O)CO5)CC3)cccc2n1
Which record shows the lower bioavailability: the first, 1 , or the second, 2 ? Mark your selection by writing its label. 2
(2: 35%, 1: 65%)

---

# Measurement Target: 5-hydroxytryptamine receptor 1A (Homo sapiens, UniProt P08908)
# Sequence (P08908 whole entry): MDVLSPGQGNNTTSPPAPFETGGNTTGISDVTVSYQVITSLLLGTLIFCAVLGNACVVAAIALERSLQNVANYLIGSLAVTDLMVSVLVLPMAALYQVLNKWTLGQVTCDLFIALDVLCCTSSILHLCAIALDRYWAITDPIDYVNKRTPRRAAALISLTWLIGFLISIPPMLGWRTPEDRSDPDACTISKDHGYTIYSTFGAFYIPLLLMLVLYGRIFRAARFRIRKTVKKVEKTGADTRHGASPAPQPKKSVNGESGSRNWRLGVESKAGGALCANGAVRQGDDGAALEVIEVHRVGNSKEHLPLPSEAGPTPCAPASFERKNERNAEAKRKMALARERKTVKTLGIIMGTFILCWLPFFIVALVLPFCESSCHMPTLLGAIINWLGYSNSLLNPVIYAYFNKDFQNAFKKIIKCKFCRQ
# Assay Protocol: Displacement of [3H]WAY 100635 from human recombinant 5HT1A receptor expressed in CHO cells
# Type: cell-based
pKi: −log10 of the molar value.
Experimental Endpoint: pKi

Field: example entries. Status: answers known.
{"Compound Smiles": "Cc1ccc2c(OCCN3CCN(Cc4ccc5c(c4F)N(C)C(=O)CO5)CC3)cccc2n1", "pKi": 8.50}
{"Compound Smiles": "Cc1ccc2c(OCCN3CCN(Cc4ccc5c(c4)N(CCc4ccccc4)C(=O)CO5)CC3)cccc2n1", "pKi": 7.50}
{"Compound Smiles": "Cc1ccc2c(OCCN3CCN(Cc4cc(F)c5c(c4)N(C)C(=O)CO5)CC3)cccc2n1", "pKi": 8.10}
{"Compound Smiles": "CCN1C(=O)COc2ccc(CC3CCN(CCOc4cccc5nc(C)ccc45)CC3)cc21", "pKi": 8.50}
{"Compound Smiles": "CCN1C(=O)COc2ccc(CN3CCN(CCOc4cccc5nc(C)ccc45)CC3)c(F)c21", "pKi": 8.60}

1. Cc1ccc2c(OCCN3CCN(Cc4ccc5c(c4)NC(=O)CO5)CC3)cccc2n1
2. Cc1ccc2c(OCCN3CCN(Cc4ccc5c(c4)N(C)C(=O)CO5)CC3)cccc2n1
3. Cc1ccc2c(OCCN3CCC(Cc4ccc5c(c4)N(C(C)C)C(=O)CO5)CC3)cccc2n1
// smallest pKi at index 0, largest at the end Respond with an ordered listing of the labels, as requested. 1, 2, 3

I. CCCN1C(=O)COc2ccc(CN3CCN(CCOc4cccc5nc(C)ccc45)CC3)cc21
II. Cc1ccc2c(OCCN3CCC(Cc4ccc5c(c4)N(C)C(=O)CO5)CC3)cccc2n1
Between the entries labelled I and II , which has a larger pKi value on record? Mark your selection by writing its label. II

---

# Assay Protocol: Clearance in rat blood at 1 mg/kg, iv
# Format: ADME, organism-based
# Design: dose 1 mg/kg, route intravenous
Experimental Endpoint: clearance (mL/min/kg)

{"Compound Smiles": "CCN1C(=O)COc2ccc(CN3CCN(CCOc4cccc5nc(C)ccc45)CC3)c(F)c21", "Readout Units": "mL/min/kg", "clearance": 23}
{"Compound Smiles": "Cc1ccc2c(OCCN3CCN(Cc4ccc5c(c4F)N(C)C(=O)CO5)CC3)cccc2n1", "Readout Units": "mL/min/kg", "clearance": 34}
{"Compound Smiles": "CCN1C(=O)COc2ccc(CC3CCN(CCOc4cccc5nc(C)ccc45)CC3)cc21", "Readout Units": "mL/min/kg", "clearance": 31}

P. Cc1ccc2c(OCCN3CCC(Cc4ccc5c(c4)NC(=O)CO5)CC3)cccc2n1
Q. Cc1ccc2c(OCCN3CCN(Cc4cc(F)c5c(c4)N(C)C(=O)CO5)CC3)cccc2n1
Which record shows the lower clearance: the first, P , or the second, Q ? Mark your selection by writing its label. Q
(Q: 14 mL/min/kg, P: 50 mL/min/kg)

---

pIC50: −log10 of the molar value.
Measurement record for Cytochrome P450 2D6 (Homo sapiens, UniProt P10635); quantity recorded: pIC50.
Experimental Endpoint: pIC50

{"Compound Smiles": "Cc1ccc2c(OCCN3CCN(Cc4ccc5c(c4)N(Cc4ccccc4)C(=O)CO5)CC3)cccc2n1", "Experimental Endpoint": "pIC50", "Experimental Value": 4.82}
{"Compound Smiles": "Cc1ccc2c(OCCN3CCN(Cc4ccc5c(c4)N(CCc4ccccc4)C(=O)CO5)CC3)cccc2n1", "Experimental Endpoint": "pIC50", "Experimental Value": 4.85}

---

# Assay Protocol: Volume of distribution at steady state in rat at 1 mg/kg, iv
# Type: ADME, organism-based
# Parameters: dose 1 mg/kg, route intravenous
# Assay Conditions: in vivo, read-out: Vdss
Experimental Endpoint: Vd (L/kg)

{"Compound Smiles": "Cc1ccc2c(OCCN3CCC(Cc4ccc5c(c4)N(C)C(=O)CO5)CC3)cccc2n1", "Readout Units": "L/kg", "Experimental Value": 4.2}

a. CCN1C(=O)COc2ccc(CC3CCN(CCOc4cccc5nc(C)ccc45)CC3)cc21
b. Cc1ccc2c(OCCN3CCC(Cc4ccc5c(c4)NC(=O)CO5)CC3)cccc2n1
Between the entries labelled a and b , which has a larger Vd value on record? Mark your selection by writing its label. b
(b: 4.4 L/kg, a: 2.5 L/kg)

---

Collected IC50 values appear next to each entry.
Target chain: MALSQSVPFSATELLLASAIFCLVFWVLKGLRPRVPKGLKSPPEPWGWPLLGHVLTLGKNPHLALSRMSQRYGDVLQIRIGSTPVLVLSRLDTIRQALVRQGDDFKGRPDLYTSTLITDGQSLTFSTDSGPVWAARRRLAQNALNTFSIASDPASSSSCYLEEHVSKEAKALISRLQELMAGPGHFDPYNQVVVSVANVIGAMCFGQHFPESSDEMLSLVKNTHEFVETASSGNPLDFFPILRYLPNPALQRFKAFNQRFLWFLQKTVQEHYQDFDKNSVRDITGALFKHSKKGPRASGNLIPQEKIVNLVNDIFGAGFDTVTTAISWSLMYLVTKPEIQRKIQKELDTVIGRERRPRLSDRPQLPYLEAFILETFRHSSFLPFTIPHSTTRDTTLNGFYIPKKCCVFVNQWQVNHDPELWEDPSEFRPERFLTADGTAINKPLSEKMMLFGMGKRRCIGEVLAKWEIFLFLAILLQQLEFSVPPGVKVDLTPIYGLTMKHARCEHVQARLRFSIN

Field: example entries. Status: answers known.
{"Compound Smiles": "Cc1ccc2c(OCCN3CCN(Cc4cc(F)c5c(c4)N(C)C(=O)CO5)CC3)cccc2n1", "IC50": "> 19 µM"}
{"Compound Smiles": "Cc1ccc2c(OCCN3CCN(Cc4ccc5c(c4)N(C)C(=O)CO5)CC3)cccc2n1", "IC50": "> 20 µM"}

// moving on: another record for IC50
What IC50 value was documented for this compound, Cc1ccc2c(OCCN3CCN(Cc4ccc5c(c4F)N(C)C(=O)CO5)CC3)cccc2n1 ? > 16 µM

---

# Measurement Target: 5-hydroxytryptamine receptor 1D (Homo sapiens, UniProt P28221)
# Sequence (P28221 whole entry): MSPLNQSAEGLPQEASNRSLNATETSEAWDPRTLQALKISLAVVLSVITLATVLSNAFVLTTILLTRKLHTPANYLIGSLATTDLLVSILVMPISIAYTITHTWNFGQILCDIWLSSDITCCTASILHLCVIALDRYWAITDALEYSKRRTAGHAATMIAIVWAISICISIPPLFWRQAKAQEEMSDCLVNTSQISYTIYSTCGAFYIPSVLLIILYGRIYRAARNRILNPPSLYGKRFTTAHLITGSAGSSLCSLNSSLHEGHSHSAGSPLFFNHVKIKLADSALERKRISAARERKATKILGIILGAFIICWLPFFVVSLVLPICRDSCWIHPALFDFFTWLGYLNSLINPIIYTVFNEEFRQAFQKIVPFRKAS
# Assay Protocol: Intrinsic activity at human recombinant 5HT1D receptor expressed in CHO cells by [35S]GTP-gamma-S binding assay relative to 5-hydroxytryptamine
# Type: functional, cell-based
Experimental Endpoint: Intrinsic activity

A. CCN1C(=O)COc2ccc(CN3CCN(CCOc4cccc5nc(C)ccc45)CC3)cc21
B. COc1ccc(NC(=O)c2ccc(-c3ccc(-c4noc(C)n4)cc3C)cc2)cc1N1CCN(C)CC1
Between the entries labelled A and B , which has a larger Intrinsic activity value on record? Mark your selection by writing its label. B
